- Study target: Human PKK (Homo sapiens (Human))
Experimental readout: pKi
pKi is defined as minus the log10 of a concentration measured in mol/L.

Example entries and their recorded answers appear below.
Cc1nc(N2CC3CC3C2)ccc1Cn1cc(C(=O)N[C@@H]2CCc3c2n[nH]c3C)nc1C(F)(F)F (stereo partly shown) :: 8.22
Cc1nc(N2CC3CC3C2)ccc1Cn1cc(C(=O)N[C@@H]2CCc3c(C)n[nH]c32)c2cncnc21 (stereo partly shown) :: 10.00
Cc1nc(N2CC3CC3C2)ccc1Cn1cc(C(=O)N[C@@H]2CCc3c2n[nH]c3C)nc1Cl (stereo partly shown) :: 8.40

API: the following record is the query input.
The value of pKi recorded for Cc1nc(N2C[C@@H]3[C@H](CO)[C@@H]3C2)ccc1Cn1cnc(C(=O)N[C@@H]2CCc3c2n[nH]c3C)c1 (stereo in doubt) when tested on Human PKK (Homo sapiens (Human)) reads 9.00

###

- Study target: PKK in kaolin activated human platelet poor plasma (Homo sapiens (Human))
- Procedure summary: Inhibition of PKK in kaolin activated human PPP
- Assay type: biochemical
- Experimental parameters: global fit over 25, 75, 250, 750 μg/mL kaolin
- Description: Platelet poor plasma (PPP) obtained from human wholeblood, anticoagulated with Na-Citrat, was incubated with various concentrations of the test compound together with either 25, 75, 250, or 750 μg/mL kaolin in assay buffer for 20 min at 37° C. such that for each kaolin dose used a concentration response was obtained for the test compound.
Experimental readout: IC90 (nM)
Field format: number, assumed nM, no unit text.

Cc1nc(N2CCC(F)(F)C2)ccc1Cn1cc(C(=O)N[C@@H]2CCc3c2n[nH]c3C)cn1 :: 4980

Let me check: Cc1nc(N2CC3CC3C2)ccc1Cn1cc(C(=O)N[C@@H]2CCc3c2n[nH]c3C)nc1C (some centres unmarked) , system PKK in kaolin activated human platelet poor plasma (Homo sapiens (Human)), measured IC90 is 302

Cc1nc(N2CC3CC3C2)ccc1Cn1cc(C(=O)N[C@@H]2CCc3c2n[nH]c3C)nc1Cl (some centres unmarked) tested on PKK in kaolin activated human platelet poor plasma (Homo sapiens (Human)) gave IC90: 5480

Form field IC90 for item Cc1nc(N2CC3CC3C2)ncc1Cn1cc(C(=O)N[C@@H]2CCc3c(C)n[nH]c32)nn1 (some centres unmarked) on PKK in kaolin activated human platelet poor plasma (Homo sapiens (Human)): 1170

The value of IC90 recorded for Cc1nc(N2CCC(C(F)F)C2)ccc1Cn1cc(C(=O)N[C@@H]2CCc3c2n[nH]c3C)cn1 (some centres unmarked) when tested on PKK in kaolin activated human platelet poor plasma (Homo sapiens (Human)) reads 2840

Given the compound Cc1nc(N2CCC(C)(C)C2)ccc1Cn1cc(C(=O)N[C@@H]2CCc3c2n[nH]c3C)cn1 and test system PKK in kaolin activated human platelet poor plasma (Homo sapiens (Human)), the measured IC90 is 2010

# lookup: Cc1nc(N2CC3C(C2)C3(F)F)ccc1Cn1cc(C(=O)N[C@@H]2CCc3c(C)n[nH]c32)cn1 (some centres unmarked) on PKK in kaolin activated human platelet poor plasma (Homo sapiens (Human)), IC90 = 241

Entry Cc1nc(N2CC3(CC3)C2)ccc1Cn1cc(C(=O)N[C@@H]2CCc3c(C)n[nH]c32)cn1 : IC90 on PKK in kaolin activated human platelet poor plasma (Homo sapiens (Human)) = 598

###

- Study target: Human PKK (Homo sapiens (Human), UniProt P03952)
- Sequence (P03952 391-638): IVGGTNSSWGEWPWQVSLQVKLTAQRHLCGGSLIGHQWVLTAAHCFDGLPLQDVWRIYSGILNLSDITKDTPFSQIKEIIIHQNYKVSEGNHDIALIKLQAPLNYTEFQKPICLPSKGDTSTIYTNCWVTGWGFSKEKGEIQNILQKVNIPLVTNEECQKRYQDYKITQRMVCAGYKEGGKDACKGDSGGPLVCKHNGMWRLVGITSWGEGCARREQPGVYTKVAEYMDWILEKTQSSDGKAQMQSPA
- Sequence (P03952 20-390 partner): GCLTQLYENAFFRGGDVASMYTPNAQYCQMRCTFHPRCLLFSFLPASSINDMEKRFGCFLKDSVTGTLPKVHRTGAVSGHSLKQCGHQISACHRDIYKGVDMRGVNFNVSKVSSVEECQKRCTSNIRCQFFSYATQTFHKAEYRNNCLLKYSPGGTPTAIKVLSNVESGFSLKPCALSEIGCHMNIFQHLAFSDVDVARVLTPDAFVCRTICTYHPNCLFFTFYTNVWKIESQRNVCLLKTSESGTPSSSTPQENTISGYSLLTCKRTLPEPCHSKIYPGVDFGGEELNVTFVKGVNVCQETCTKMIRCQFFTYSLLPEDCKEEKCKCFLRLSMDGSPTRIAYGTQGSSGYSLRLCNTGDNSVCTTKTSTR
In this section we review reported pIC50 values for a set of compounds.
// scale note: pIC50 = -log10(conc_M); give the bare number

COCc1nn(Cc2cnc(N3CC4(CC4)C3)nc2C)cc1C(=O)N[C@@H]1CCc2c(C)n[nH]c21 :: 8.00
Cc1nc(N2CC3CC3C2)ccc1Cn1cc(C(=O)N[C@@H]2CCc3c(C)n[nH]c32)c(Cl)n1 (some centres unmarked) :: 9.00
COCc1nn(Cc2ccc(N3CC4CC4C3)nc2C)cc1C(=O)N[C@@H]1CCc2c(C)n[nH]c21 (some centres unmarked) :: 9.05
Cc1nc(N2CC3C(C2)C3(F)F)ccc1Cn1cc(C(=O)N[C@@H]2CCc3c(C)n[nH]c32)c(C)n1 (some centres unmarked) :: 9.05
Cc1nc(N2CC(CO)C2)ccc1Cn1cc(C(=O)N[C@@H]2CCc3c2n[nH]c3C)cn1 :: 7.25
Cc1nc(N2CCC(C)(C)C2)ccc1Cn1cc(C(=O)N[C@@H]2CCc3c2n[nH]c3C)cn1 :: 8.70
Cc1nc(N2C[C@@H]3[C@H](CO)[C@@H]3C2)ccc1Cn1cnc(C(=O)N[C@@H]2CCc3c2n[nH]c3C)c1 (stereo in doubt) :: 9.00
Cc1nc(N2CCC3CC3C2)ccc1Cn1cc(C(=O)N[C@@H]2CCc3c2n[nH]c3C)cn1 (some centres unmarked) :: 8.30

Reading of pIC50 for COC1C2CC1CN(c1ccc(Cn3cc(C(=O)N[C@@H]4CCc5c4n[nH]c5C)cn3)c(C)n1)C2 (some centres unmarked) with Human PKK (Homo sapiens (Human), UniProt P03952): 8.05

Lab entry: Human PKK (Homo sapiens (Human), UniProt P03952) assay, compound Cc1nc(N2CC3(CC3)C2)ncc1Cn1cc(C(=O)N[C@@H]2CCc3c(C)n[nH]c32)cn1 , pIC50 = 8.10

Recorded pIC50 for Cc1nc(N2CC3CC3C2)ccc1Cn1cc(C(=O)N[C@@H]2CCc3c(C)n[nH]c32)c(-c2cnn(C)c2)n1 (some centres unmarked) on Human PKK (Homo sapiens (Human), UniProt P03952) was 8.70

Result for Cc1nc(N2CC(C(C)C)C2)ccc1Cn1cc(C(=O)N[C@@H]2CCc3c2n[nH]c3C)cn1 , tested on Human PKK (Homo sapiens (Human), UniProt P03952), pIC50: 7.89

I looked up Cc1nc(N2CC3(CC3)C2)ncc1Cn1cc(C(=O)N[C@@H]2CCc3c(C)n[nH]c32)c(C)n1 and its pIC50 for Human PKK (Homo sapiens (Human), UniProt P03952) was 8.15

Record Cc1nc(N2C[C@@H]3[C@@H](CF)[C@@H]3C2)ccc1Cn1cc(C(=O)N[C@@H]2CCc3c2n[nH]c3C)cn1 / Human PKK (Homo sapiens (Human), UniProt P03952), pIC50 recorded as 8.40

Known value: Human PKK (Homo sapiens (Human), UniProt P03952) pIC50 of the compound Cc1nc(N2CC3(CC(O)C3)C2)ccc1Cn1cc(C(=O)N[C@@H]2CCc3c2n[nH]c3C)cn1 equals 6.24

###

Endpoint: pIC50. System: Human PKK (Homo sapiens (Human)). Items follow.
Please express pIC50 as -log10 of the molar concentration.

Cc1nc(N2CC3C(C2)C3(F)F)ccc1Cn1cc(C(=O)N[C@@H]2CCc3c(C)n[nH]c32)c2cncnc21 (stereo partly drawn) [Example 13] :: 9.30
Cc1nc(N2CCC3C(CC2)C3(F)F)ccc1Cn1cc(C(=O)N[C@@H]2CCc3c2n[nH]c3C)cn1 (stereo partly drawn) [Example 66] :: 7.29
Cc1nc(N2CC3CC3C2)ccc1Cc1cc(C(=O)N[C@@H]2CCc3c(C)n[nH]c32)sc1C#N (stereo partly drawn) [Example 8] :: 8.40
Cc1nc(N2CC3CC3C2)ccc1Cn1cc(C(=O)N[C@H]2CCc3c(C)n[nH]c32)cn1 (stereo partly drawn) [Example 2] :: 7.49
Cc1nc(N2CC3(CC3)C2)ncc1Cn1cnc(C(=O)N[C@@H]2CCc3c(C)n[nH]c32)c1 [Example 93] :: 8.40

Cc1nc(N2CCCCC2)ccc1Cn1cc(C(=O)N[C@@H]2CCc3c2n[nH]c3C)cn1 [Example 34] yielded pIC50 of 7.96

The measured pIC50 associated with Cc1nc(N2CCC(F)(F)C2)ccc1Cn1cc(C(=O)N[C@@H]2CCc3c2n[nH]c3C)cn1 [Example 37] reads 8.15

###

- Study target: Human PKK (Homo sapiens (Human), UniProt P03952)
Ki: recorded values
Record the value in pM, omitting the unit from your answer.

Form: compound = Cc1nc(N2CC3CC3C2)ccc1Cn1cc(C(=O)N[C@@H]2CCc3c(C)n[nH]c32)c(C)n1 (stereo partly drawn) ; Ki = 300

###

- Study target: PKK in kaolin activated human platelet poor plasma (Homo sapiens (Human), UniProt P03952)
- Sequence (P03952 391-638): as the sequence (P03952 391-638) above
- Sequence (P03952 20-390 partner): as the sequence (P03952 20-390 partner) above
- Procedure summary: Inhibition of PKK in kaolin activated human PPP
- Assay type: biochemical
- Experimental parameters: global fit over 25, 75, 250, 750 μg/mL kaolin
Experimental readout: IC90 (nM)
# unit: nM | format: bare number

Examples with their reported IC90 follow.
Cc1nc(N2C[C@@H]3[C@H](C)[C@@H]3C2)ncc1Cn1cnc(C(=O)N[C@@H]2CCc3c2n[nH]c3C)c1 [Example 101] :: 727
Cc1nc(N2CC3CC3C2)ccc1Cn1cc(C(=O)N[C@@H]2CCc3c2n[nH]c3C)c2cc(C(=O)O)ccc21 (stereo partly shown) [Example 108] :: 776
Cc1nc(N2C[C@@H]3[C@H](C)[C@@H]3C2)ccc1Cn1cnc(C(=O)N[C@@H]2CCc3c2n[nH]c3C)c1 [Example 100] :: 303
Cc1nc(N2CCC(C)(C#N)C2)ccc1Cn1cc(C(=O)N[C@@H]2CCc3c2n[nH]c3C)cn1 (stereo partly shown) [Example 71] :: 708

IC90 reading for Cc1nc(N2CC3CC3C2)ccc1Cn1cc(C(=O)N[C@@H]2CCc3c(C)n[nH]c32)cn1 (stereo partly shown) [Example 3] : 679

Input Cc1nc(N2C[C@@H]3[C@H](C)[C@@H]3C2)ccc1Cn1cc(C(=O)N[C@@H]2CCc3c2n[nH]c3C)cn1 [Example 47] . Output IC90: 445

Field IC90 (entry Cc1nc(N2CC3CC3C2)ccc1Cn1cc(C(=O)N[C@@H]2CCc3c2n[nH]c3C)nc1C1CC1 (stereo partly shown) [Example 96] ) reads 781
